# measurement.notes: Thawing and baking trials with yeast-raised wheat frozen doughs in a microwave oven
# condition.parameters: assessment scale from ΔT; yeast-raised wheat frozen dough
Exercise: for every item that follows, state its recorded Microwave activity.

Q) Name the recorded Microwave activity for O=P([O-])(O)O.O=P([O-])(O)O.[Ca+2] [MCPA(V), Monocalcium phosphate anhydrate, reference compound] .
A) 3 (ΔT=<25° C.=no additional activity)

Q) Name the recorded Microwave activity for O=P([O-])(O)O.O=P([O-])(O)O.[Mg+2] [MSPA, Monomagnesium phosphate anhydrate] .
A) 1 (ΔT=>40° C.=very good)

Q) Name the recorded Microwave activity for O=P([O-])([O-])OP(=O)([O-])[O-].O=P([O-])([O-])OP(=O)([O-])[O-].O=P([O-])([O-])OP(=O)([O-])[O-].[Fe+3].[Fe+3].[Fe+3].[Fe+3] [FePP, Iron-III-pyrophosphate] .
A) 1 (ΔT=>40° C.=very good)

Q) Name the recorded Microwave activity for O.O.O=P([O-])([O-])[O-].O=P([O-])([O-])[O-].[Zn+2].[Zn+2].[Zn+2] [TZP, Trizinc phosphate dihydrate] .
A) 2 (ΔT=25 to 40° C.=good)

Q) Name the recorded Microwave activity for O=P([O-])([O-])[O-].[Fe+3] [FeOP, Iron-III-orthophosphate] .
A) 1 (ΔT=>40° C.=very good)

Q) Name the recorded Microwave activity for O=P([O-])([O-])OP(=O)([O-])[O-].[Zn+2].[Zn+2] [ZPP, Zinc pyrophosphate] .
A) 2 (ΔT=25 to 40° C.=good)

Q) Name the recorded Microwave activity for O.O=P([O-])(O)O.O=P([O-])(O)O.[Ca+2] [MCPM, Monocalcium phosphate monohydrate] .
A) 2 (ΔT=25 to 40° C.=good)

Q) Name the recorded Microwave activity for O=P([O-])([O-])OP(=O)([O-])OP(=O)([O-])[O-].[K+].[K+].[K+].[K+].[K+] [KTPP(V), Potassium tripolyphosphate, reference compound] .
A) 3 (ΔT=<25° C.=no additional activity)

Q) Name the recorded Microwave activity for O=P([O-])([O-])[O-].O=P([O-])([O-])[O-].[Ca+2].[Ca+2].[Ca+2] [TCP, Tricalcium phosphate] .
A) 2 (ΔT=25 to 40° C.=good)

Q) Name the recorded Microwave activity for O.O.O.O=P([O-])([O-])O.[Mg+2] [DMP, Dimagnesium phosphate trihydrate] .
A) 1 (ΔT=>40° C.=very good)
